Catalogue of logD values
# assay.details: method code TLC index, from DOI: 10.1016/0223-5234(96)88245-6
# test.conditions: pH 7.4
Give your answer as a number; write no unit.

CCOC(=O)C1=C(C)NC(C)=C(C(=O)OC)C1c1cc(F)cc(F)c1 (stereo not drawn) = 1.46
COC(=O)C1=C(C)NC(C)=C(C(=O)OC)C1c1ccc(F)cc1 = 0.82
CCOC(=O)C1=C(C)NC(C)=C(C(=O)OCC)C1c1cccc([N+](=O)[O-])c1 = 1.6
CCOC(=O)C1=C(C)NC(C)=C(C(=O)OCC)C1c1ccc(F)cc1 = 1.66
COC(=O)C1=C(C)NC(C)=C(C(=O)OCCOc2ccccc2)C1c1cc(F)cc(F)c1 (stereo not drawn) = 3.08

*Q* Tell me measured logD for CCOC(=O)C1=C(C)NC(C)=C(C(=O)OCC)C1c1cc(F)cc(F)c1 please.
*A* 2.09

*Q* Tell me measured logD for COC(=O)C1=C(C)NC(C)=C(C(=O)OC)C1c1ccc(F)c(Br)c1 please.
*A* 1.48

*Q* Tell me measured logD for COC(=O)C1=C(C)NC(C)=C(C(=O)OC)C1c1cc(F)cc(F)c1 please.
*A* 1.15
